Ref: ChEMBL document CHEMBL4400561

Tested on: RAW264.7
Assay: Cytotoxicity against mouse RAW264.7 cells at anti-inflammatory IC50 after 19 hrs by MTT assay
Assay type: cell-based
Settings: raw264.7, 19 h
EXPERIMENTAL ENDPOINT: Activity

{"COMPOUND": "C[C@@H]1O[C@@H](O[C@H]2[C@H](O[C@H]3CC[C@]4(C)[C@H]5CC=C6[C@@H]7CC(C)(C)CC[C@]7(C(=O)O)CC[C@@]6(C)[C@]5(C)CC[C@H]4C3(C)C)OC[C@H](O)[C@@H]2O[C@@H]2O[C@H](CO)[C@@H](O)[C@H](O)[C@H]2O)[C@H](O)[C@H](O)[C@H]1O", "SUBJECT OF TEST": "RAW264.7", "RESULT": "Non-Toxic"}
{"COMPOUND": "CC1(C)CC[C@]2(C(=O)O[C@@H]3O[C@H](CO[C@@H]4O[C@H](CO)[C@@H](O)[C@H](O)[C@H]4O)[C@@H](O)[C@H](O)[C@H]3O)CC[C@]3(C)C(=CC[C@@H]4[C@@]5(C)CC[C@H](O[C@@H]6OC[C@H](O)[C@H](O)[C@H]6O)[C@@](C)(CO)[C@@H]5CC[C@]43C)[C@@H]2C1", "SUBJECT OF TEST": "RAW264.7", "RESULT": "Non-Toxic"}
{"COMPOUND": "C[C@@H]1O[C@@H](O[C@H]2[C@H](O[C@H]3CC[C@@]4(C)[C@@H](CC[C@]5(C)[C@@H]4CC=C4[C@@H]6CC(C)(C)CC[C@]6(C(=O)O[C@@H]6O[C@H](CO[C@@H]7O[C@H](CO)[C@@H](O[C@@H]8O[C@@H](C)[C@H](O)[C@@H](O)[C@H]8O)[C@H](O)[C@H]7O)[C@@H](O)[C@H](O)[C@H]6O)CC[C@]45C)[C@]3(C)CO)OC[C@H](O)[C@@H]2O)[C@H](O)[C@H](O)[C@H]1O [KALOPANAXSAPONIN B]", "SUBJECT OF TEST": "RAW264.7", "RESULT": "Non-Toxic"}
{"COMPOUND": "C=C1CC[C@]2(C(=O)O[C@@H]3O[C@H](CO[C@@H]4O[C@H](CO)[C@@H](O)[C@H](O)[C@H]4O)[C@@H](O)[C@H](O)[C@H]3O)CC[C@]3(C)C(=CC[C@@H]4[C@@]5(C)CC[C@H](O)C(C)(C)[C@@H]5CC[C@]43C)[C@@H]2C1", "SUBJECT OF TEST": "RAW264.7", "RESULT": "Non-Toxic"}
{"COMPOUND": "C[C@@H]1O[C@@H](O[C@H]2[C@H](O)[C@@H](O)[C@H](OC[C@H]3O[C@@H](OC(=O)[C@]45CCC(C)(C)C[C@H]4C4=CC[C@@H]6[C@@]7(C)CC[C@H](O)C(C)(C)[C@@H]7CC[C@@]6(C)[C@]4(C)CC5)[C@H](O)[C@@H](O)[C@@H]3O)O[C@@H]2CO)[C@H](O)[C@H](O)[C@H]1O [CIRENSENOSIDE O]", "SUBJECT OF TEST": "RAW264.7", "RESULT": "Non-Toxic"}
{"COMPOUND": "CC1(C)CC[C@]2(C(=O)O)CC[C@]3(C)C(=CC[C@@H]4[C@@]5(C)CC[C@H](O[C@@H]6OC[C@H](O)[C@H](O)[C@H]6O[C@@H]6O[C@H](CO)[C@@H](O)[C@H](O)[C@H]6O)C(C)(C)[C@@H]5CC[C@]43C)[C@@H]2C1", "SUBJECT OF TEST": "RAW264.7", "RESULT": "Non-Toxic"}
